Listed here: compounds with reported pIC50 for PDGFRB (Homo sapiens, UniProt P09619).
pIC50: −log10 of the molar value.

Some solved cases for reference:
Compound: CCNC(=O)c1coc2cc(Oc3ccnc4cc(-c5cn(C)cn5)ccc34)ccc12 [Example 222]
System Under Test: PDGFRB (Homo sapiens, UniProt P09619)
Sequence (P09619 33-1106): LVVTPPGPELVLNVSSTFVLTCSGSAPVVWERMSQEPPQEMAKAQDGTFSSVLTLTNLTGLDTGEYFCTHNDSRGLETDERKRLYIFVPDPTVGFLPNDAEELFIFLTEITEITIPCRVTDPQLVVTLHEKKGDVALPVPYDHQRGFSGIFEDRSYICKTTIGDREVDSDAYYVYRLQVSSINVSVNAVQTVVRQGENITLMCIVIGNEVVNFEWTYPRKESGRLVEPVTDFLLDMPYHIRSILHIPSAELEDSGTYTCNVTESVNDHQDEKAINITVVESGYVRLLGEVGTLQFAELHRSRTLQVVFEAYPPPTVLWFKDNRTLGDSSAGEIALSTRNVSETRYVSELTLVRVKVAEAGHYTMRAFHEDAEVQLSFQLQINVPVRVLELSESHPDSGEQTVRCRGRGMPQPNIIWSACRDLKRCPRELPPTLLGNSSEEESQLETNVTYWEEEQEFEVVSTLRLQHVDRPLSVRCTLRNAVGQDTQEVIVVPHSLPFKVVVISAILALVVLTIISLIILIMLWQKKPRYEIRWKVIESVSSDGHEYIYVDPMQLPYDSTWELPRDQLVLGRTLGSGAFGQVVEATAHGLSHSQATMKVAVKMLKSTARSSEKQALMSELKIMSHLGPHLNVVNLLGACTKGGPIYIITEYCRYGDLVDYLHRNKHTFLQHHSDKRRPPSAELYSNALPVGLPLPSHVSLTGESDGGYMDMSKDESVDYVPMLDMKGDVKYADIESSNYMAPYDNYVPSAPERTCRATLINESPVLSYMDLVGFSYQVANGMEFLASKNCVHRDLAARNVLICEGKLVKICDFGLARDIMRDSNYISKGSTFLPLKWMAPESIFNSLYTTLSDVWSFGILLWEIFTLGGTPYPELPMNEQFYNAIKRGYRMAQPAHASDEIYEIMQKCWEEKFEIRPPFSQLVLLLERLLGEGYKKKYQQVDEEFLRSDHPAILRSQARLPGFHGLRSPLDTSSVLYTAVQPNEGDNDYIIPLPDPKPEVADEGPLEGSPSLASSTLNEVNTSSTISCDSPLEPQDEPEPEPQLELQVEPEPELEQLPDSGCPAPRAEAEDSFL
Measured: 6.70 to 7.30
//
Compound: COc1cc2nccc(Oc3ccc(NC(N)=S)c(Cl)c3)c2cc1C(N)=O [Example 57]
System Under Test: PDGFRB (Homo sapiens, UniProt P09619)
Measured: 6.70 to 7.30
//
Compound: COc1cc2nccc(Oc3ccc(NC(=S)N4CC(F)(F)C4)cc3F)c2cc1C(N)=O [Example 101]
System Under Test: PDGFRB (Homo sapiens, UniProt P09619)
Measured: 6.70 to 7.30
//
Compound: COc1cc2nccc(Oc3ccc4c(c3)CCN4C(=S)NC3CC3)c2cc1C(N)=O [Example 24]
System Under Test: PDGFRB (Homo sapiens, UniProt P09619)
Measured: 6.00 to 6.70
//
Compound: COc1cc2nccc(Oc3ccc(NC(=S)Nc4ccccc4F)c(Cl)c3)c2cc1C(N)=O [Example 65]
System Under Test: PDGFRB (Homo sapiens, UniProt P09619)
Measured: > 7.30
//
Compound: COc1cc2nccc(Oc3ccc(NC(=S)N4CC(C)(O)C4)c(Cl)c3)c2cc1C(N)=O [Example 85]
System Under Test: PDGFRB (Homo sapiens, UniProt P09619)
Measured: 6.00 to 6.70

# query: pIC50 | item COc1cc2nccc(Oc3ccc(Nc4c(NC5CCOCC5)c(=O)c4=O)c(Cl)c3)c2cc1C(N)=O [Example 139] | system: PDGFRB (Homo sapiens, UniProt P09619) 6.00 to 6.70

Please state recorded pIC50 (tested on PDGFRB (Homo sapiens, UniProt P09619)) of COc1cc2nccc(Oc3ccc(NC(=S)NCCC#N)c(Cl)c3)c2cc1C(N)=O [Example 18] 6.00 to 6.70

---

# System Under Test: VEGFR2 (Homo sapiens)
# Sequence (P35968 20-1356): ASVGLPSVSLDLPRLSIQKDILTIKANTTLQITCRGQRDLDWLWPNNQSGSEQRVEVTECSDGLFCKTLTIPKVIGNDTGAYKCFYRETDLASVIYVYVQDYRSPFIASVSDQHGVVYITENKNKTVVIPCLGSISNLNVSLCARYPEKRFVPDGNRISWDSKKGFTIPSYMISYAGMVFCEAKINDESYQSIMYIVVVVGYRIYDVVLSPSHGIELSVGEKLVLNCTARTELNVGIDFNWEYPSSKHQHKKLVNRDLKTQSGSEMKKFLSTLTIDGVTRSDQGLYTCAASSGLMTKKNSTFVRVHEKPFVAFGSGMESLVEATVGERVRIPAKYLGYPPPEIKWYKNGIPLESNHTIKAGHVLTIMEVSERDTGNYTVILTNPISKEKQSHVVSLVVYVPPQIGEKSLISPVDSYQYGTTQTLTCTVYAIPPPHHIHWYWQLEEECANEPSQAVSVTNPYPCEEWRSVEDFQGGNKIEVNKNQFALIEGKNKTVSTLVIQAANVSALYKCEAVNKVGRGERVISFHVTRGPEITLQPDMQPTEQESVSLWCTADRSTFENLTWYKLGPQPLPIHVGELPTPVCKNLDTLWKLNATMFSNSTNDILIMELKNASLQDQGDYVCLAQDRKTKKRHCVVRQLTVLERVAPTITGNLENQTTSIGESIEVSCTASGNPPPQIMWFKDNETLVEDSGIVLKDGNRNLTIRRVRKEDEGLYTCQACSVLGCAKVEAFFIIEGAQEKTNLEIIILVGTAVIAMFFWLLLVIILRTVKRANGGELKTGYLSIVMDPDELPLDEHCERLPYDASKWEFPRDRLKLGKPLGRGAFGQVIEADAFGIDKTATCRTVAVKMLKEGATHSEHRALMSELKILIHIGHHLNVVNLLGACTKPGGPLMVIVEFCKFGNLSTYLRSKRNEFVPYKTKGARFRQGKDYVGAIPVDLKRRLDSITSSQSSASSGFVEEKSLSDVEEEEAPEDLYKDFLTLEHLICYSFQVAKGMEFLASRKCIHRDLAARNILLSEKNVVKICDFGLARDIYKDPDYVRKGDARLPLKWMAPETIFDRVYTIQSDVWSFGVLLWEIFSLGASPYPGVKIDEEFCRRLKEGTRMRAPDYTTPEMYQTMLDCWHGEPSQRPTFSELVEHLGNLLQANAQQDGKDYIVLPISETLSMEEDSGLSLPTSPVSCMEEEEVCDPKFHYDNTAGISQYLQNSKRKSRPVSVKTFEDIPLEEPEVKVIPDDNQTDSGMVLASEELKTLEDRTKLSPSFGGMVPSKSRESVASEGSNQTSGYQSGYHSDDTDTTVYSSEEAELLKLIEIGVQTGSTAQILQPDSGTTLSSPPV
pIC50: −log10 of the molar value.
Assay Metric: pIC50

Example entries and their recorded answers appear below.
Compound: COc1cc2nccc(Oc3ccc(NC(=O)NC(C)C(F)(F)F)c(Cl)c3)c2cc1C(N)=O (centres unmarked)
pIC50: 6.00 to 6.70
//
Compound: COc1cc2nccc(Oc3cc4occ(C(=O)N5CCCC5)c4cc3Cl)c2cc1C(N)=O
pIC50: 6.00 to 6.70
//
Compound: COc1cc2nccc(Oc3cc(F)c(NC(=S)NC4CC4)c(F)c3)c2cc1C(N)=O
pIC50: 6.70 to 7.30
//
Compound: COc1cc2nccc(Oc3ccc(NC(=S)N4CC(F)C4)c(Cl)c3F)c2cc1C(N)=O
pIC50: > 7.30
//
Compound: CNC(=S)Nc1ccc(Oc2ccnc3cc(OC)c(C(N)=O)cc23)cc1Cl
pIC50: > 7.30

Look up pIC50 with VEGFR2 (Homo sapiens) for this compound: COc1cc2nccc(Oc3ccc(NC(=S)N4CCCC4)c(Cl)c3F)c2cc1C(N)=O > 7.30

Under VEGFR2 (Homo sapiens): pIC50 value of COc1cc2nccc(Oc3ccc(NC(=S)Nc4ccc(Cl)c(F)c4)c(Cl)c3)c2cc1C(N)=O ? 6.00 to 6.70

What is its pIC50 for VEGFR2 (Homo sapiens)? Entry: Cn1cnc(-c2ccc3c(Oc4ccc(NC(=O)N5CC(F)(F)C5)c(Cl)c4F)ccnc3c2)c1 > 7.30
